assay comment: Reversed-phase liquid chromatography retention factor (log k) on octyl bonded phase
Assay type: physicochemical
condition summary: aqueous 80% acetonitrile at 40° C.; C8 column
test readout: log k in 80% CH3CN, C8

# compound smiles, log k in 80% CH3CN, C8
data = [
    ("CCCCCCCCCCc1ccccc1", 1.324),
    ("CCCCCCCCCc1ccccc1", 1.193),
    ("CCCCCCc1ccccc1", 0.806),
    ("CCCCCCCc1ccccc1", 0.937),
    ("CCCCc1ccccc1", 0.561),
]

Which log k in 80% CH3CN, C8 value is on record for `CCCCCCCCc1ccccc1` ?
1.063

Which log k in 80% CH3CN, C8 value is on record for `CCCCCc1ccccc1` ?
0.680

Which log k in 80% CH3CN, C8 value is on record for `CCCc1ccccc1` ?
0.442

Which log k in 80% CH3CN, C8 value is on record for `CCc1ccccc1` ?
0.324

----------
assay comment: Reversed-phase liquid chromatography retention factor (log k) on pentyl bonded phase
Type: physicochemical
condition summary: 70% CH3CN; C5 column
Quick reference for log k in 70% CH3CN, C5 among some compounds
A bare number is all that is needed in reply.

Solved entries (count: 3):
# compound, experimental result
measured = [
    ("c1ccccc1 [Benzene]", 0.209),
    ("c1ccc2cc3ccccc3cc2c1 [Anthracene]", 0.562),
    ("c1ccc2cc3c(ccc4ccccc43)cc2c1 [Benzo(a)anthracene]", 0.692),
]

Which log k in 70% CH3CN, C5 value is on record for c1cc2ccc3cccc4ccc(c1)c2c34 [Pyrene] ?
0.614

Which log k in 70% CH3CN, C5 value is on record for c1ccc2ccccc2c1 [Naphthalene] ?
0.410

Which log k in 70% CH3CN, C5 value is on record for c1ccc2c(c1)ccc1cc3c(ccc4ccccc43)cc12 [Dibenzo(a,h)anthracene] ?
0.803

Which log k in 70% CH3CN, C5 value is on record for CCCCc1ccccc1 [Butylbenzene] ?
0.653

----------
assay comment: Reversed-phase liquid chromatography retention factor (log k) on octadecyl bonded phase
Type: physicochemical
condition summary: aqueous 80% acetonitrile at 40° C.; C18 column
Binarize log k in 80% CH3CN, C18 at 1; below is rule met, at or above is rule not met.

# compound, category label
rows = [
    ("CCCCCCCCc1ccccc1 [Octylbenzene]", "rule not met"),
    ("CCCc1ccccc1 [Propylbenzene]", "rule met"),
    ("CCc1ccccc1 [Ethylbenzene]", "rule met"),
    ("CCCCCCCc1ccccc1 [Heptylbenzene]", "rule not met"),
    ("CCCCc1ccccc1 [Butylbenzene]", "rule met"),
]

Just wondering, is log k in 80% CH3CN, C18 of CCCCCCCCCc1ccccc1 [Nonylbenzene] below 1?
rule not met

Just wondering, is log k in 80% CH3CN, C18 of CCCCCc1ccccc1 [Pentylbenzene] below 1?
rule met

Just wondering, is log k in 80% CH3CN, C18 of CCCCCCCCCCc1ccccc1 [Decylbenzene] below 1?
rule not met

----------
Quick reference for log k in 80% CH3CN, C6Ph among some compounds
assay comment: Reversed-phase liquid chromatography retention factor (log k) on hexyl-phenyl bonded phase
Type: physicochemical
condition summary: aqueous 80% acetonitrile at 40° C.; C6Ph column
A bare number is all that is needed in reply.

# compound smiles, log k in 80% CH3CN, C6Ph
records = [
    ("CCCCCc1ccccc1", 0.480),
    ("CCc1ccccc1", 0.215),
    ("CCCCCCCCCCc1ccccc1", 0.941),
    ("CCCCCCc1ccccc1", 0.572),
]

Which log k in 80% CH3CN, C6Ph value is on record for `CCCCc1ccccc1` ?
0.391

----------
assay comment: Reversed-phase liquid chromatography retention factor (log k) on octadecyl bonded phase
Format: physicochemical
condition summary: 70% CH3CN; C18 column
test readout: log k in 70% CH3CN, C18
A bare number is all that is needed in reply.

# compound smiles, log k in 70% CH3CN, C18
measured = [
    ("CCCCCCCc1ccccc1", 1.491),
    ("c1ccccc1", 0.340),
    ("c1ccc2c(c1)ccc1ccccc12", 0.854),
    ("c1ccc2c(c1)-c1cccc3c1c-2cc1ccccc13", 1.325),
    ("c1ccc2c(c1)ccc1c3ccccc3ccc21", 1.160),
    ("c1ccc2ccccc2c1", 0.582),
]

Which log k in 70% CH3CN, C18 value is on record for `c1cc2c3c(cccc3c1)CC2` ?
0.814

Which log k in 70% CH3CN, C18 value is on record for `c1ccc2c(c1)ccc1cc3c(ccc4ccccc43)cc12` ?
1.479

Which log k in 70% CH3CN, C18 value is on record for `c1ccc2cc3ccccc3cc2c1` ?
0.894

Which log k in 70% CH3CN, C18 value is on record for `c1ccc2c(c1)cc1ccc3cccc4ccc2c1c34` ?
1.375

----------
assay comment: Reversed-phase liquid chromatography retention factor (log k) on hexyl-phenyl bonded phase
Assay type: physicochemical
condition summary: 70% CH3CN; C6Ph column
# label = Criterion met if log k in 70% CH3CN, C6Ph >= 1 else Criterion not met

# compound smiles, category label
data = [
    ("c1cc2ccc3cccc4ccc(c1)c2c34", "Criterion not met"),
    ("c1cc2c3c(cccc3c1)CC2", "Criterion not met"),
    ("c1ccc2cc3c(ccc4ccccc43)cc2c1", "Criterion not met"),
    ("CCCCCCCCc1ccccc1", "Criterion met"),
    ("CCCCCCCCCc1ccccc1", "Criterion met"),
]

For the next question, use this molecule.
Confirm if log k in 70% CH3CN, C6Ph reported for the molecule `CCCc1ccccc1` is 1 or above.
Criterion not met

----------
assay comment: Reversed-phase liquid chromatography retention factor (log k) on octadecyl bonded phase
Type: physicochemical
condition summary: 70% CH3CN; C18 column
# label = Satisfied if log k in 70% CH3CN, C18 >= 1 else Not satisfied

Take a look at these entries with their results.
# compound, category label
rows = [
    ("c1ccc2cc3c(cc2c1)-c1cccc2cccc-3c12 [Benzo(k)fluoranthene]", "Satisfied"),
    ("CCCCCCc1ccccc1 [Hexylbenzene]", "Satisfied"),
]

For the next question, use this compound.
Confirm if log k in 70% CH3CN, C18 reported for the compound c1ccc2c(c1)Cc1ccccc1-2 [Fluorene] is 1 or above.
Not satisfied

----------
Quick reference for log k in 70% CH3CN, C8 among some compounds
assay comment: Reversed-phase liquid chromatography retention factor (log k) on octyl bonded phase
Assay type: physicochemical
condition summary: 70% CH3CN; C8 column

Solved entries (count: 3):
# compound, test readout, experimental result
records = [
    ("c1ccc2ccccc2c1 [Naphthalene]", "log k in 70% CH3CN, C8", 0.486),
    ("c1ccc2c(c1)ccc1cc3c(ccc4ccccc43)cc12 [Dibenzo(a,h)anthracene]", "log k in 70% CH3CN, C8", 1.032),
    ("c1ccc2cc3c(cc2c1)-c1cccc2cccc-3c12 [Benzo(k)fluoranthene]", "log k in 70% CH3CN, C8", 0.959),
]

Which log k in 70% CH3CN, C8 value is on record for C1=Cc2cccc3cccc1c23 [Acenaphthylene] ?
0.540

Which log k in 70% CH3CN, C8 value is on record for c1ccc2c(c1)-c1cccc3cccc-2c13 [Fluoranthene] ?
0.747

----------
Quick reference for log k in 70% CH3CN, C3Ph among some compounds
assay comment: Reversed-phase liquid chromatography retention factor (log k) on propyl-phenyl bonded phase
Type: physicochemical
condition summary: 70% CH3CN; C3Ph column
Description: The inertness and the chemical stability of the synthesized hexyl-phenyl bonded silica gel were studied by looking at the retention factors and peak shapes of pyridine, benzoic acid, 8-hydroxyquinoline, and naphthalene disclosed in T. Hanai, Encyclopedia of Analytical Science (1995), Academic Press, London, p. […] The retention factor, in terms of measured parameters, is “k=(tR−tO)/tO”: where tR is retention time of the measured peak; and to is retention time of non-retained component. […]
A bare number is all that is needed in reply.

# compound smiles, log k in 70% CH3CN, C3Ph
rows = [
    ("c1cc2c3c(cccc3c1)CC2", 0.447),
    ("c1ccc2cc3c(ccc4ccccc43)cc2c1", 0.647),
]

Which log k in 70% CH3CN, C3Ph value is on record for `CCCCCCCCc1ccccc1` ?
0.947

Which log k in 70% CH3CN, C3Ph value is on record for `CCCCCCCc1ccccc1` ?
0.851

Which log k in 70% CH3CN, C3Ph value is on record for `c1cc2ccc3cccc4ccc(c1)c2c34` ?
0.553

Which log k in 70% CH3CN, C3Ph value is on record for `CCCCCCCCCc1ccccc1` ?
1.046

Which log k in 70% CH3CN, C3Ph value is on record for `c1cc2ccc3ccc4ccc5cccc6c(c1)c2c3c4c56` ?
0.799

Which log k in 70% CH3CN, C3Ph value is on record for `CCCCCCCCCCc1ccccc1` ?
1.146

Which log k in 70% CH3CN, C3Ph value is on record for `c1ccccc1` ?
0.167
